Assay: Ascending multiple dose pharmacokinetics of enteric coated capsules in healthy subjects
Type: in vivo, human
Conditions: human, plasma, po, 150 mg, healthy subjects, multiple oral doses (q12 h) 150 mg, day 14; read-out: AUCss (AUC0-12) (Mean)
MEASURED ATTRIBUTE: AUC(0-t)

Request: AUC(0-t) for Cl.c1cc2c3c(c1)[C@H]1CCC[C@H]1CN3CCNC2 [Compound A.HCl] ?
Response: ~110 ng·h/mL

* * *

Experiment: Ascending multiple dose pharmacokinetics of enteric coated capsules in healthy subjects
Format: in vivo, human
Conditions: human, plasma, po, 150 mg, healthy subjects, multiple oral doses (q12 h) 150 mg, day 14; read-out: t1/2 (Geom. Mean) (converted)
MEASURED ATTRIBUTE: half-life (h)
Return type: number; implicit unit h.

Request: So what's the measured half-life for this one? Cl.c1cc2c3c(c1)[C@H]1CCC[C@H]1CN3CCNC2 [Compound A.HCl]
Response: 7

* * *

Experiment: Ascending multiple dose pharmacokinetics of enteric coated capsules in healthy subjects
Assay type: in vivo, human
Conditions: human, plasma, po, 250 mg, healthy subjects, multiple oral doses (q12 h) 250 mg, day 14; read-out: t1/2 (Mean) (converted)
MEASURED ATTRIBUTE: half-life (h)
State just the number; it will be interpreted in h.

Request: Given Cl.c1cc2c3c(c1)[C@H]1CCC[C@H]1CN3CCNC2 [Compound A.HCl] , state its recorded half-life.
Response: 7.12

* * *

Assay: Ascending multiple dose pharmacokinetics of enteric coated capsules in schizophrenic patients
Type: in vivo, human
Settings: human, plasma, po, 250 mg, Schizophrenia patients, multiple oral doses (q12 h) 250 mg, day 10; read-out: AUCss (AUC0-12) (Mean)
MEASURED ATTRIBUTE: AUC(0-t)

Request: Reported AUC(0-t), molecule Cl.c1cc2c3c(c1)[C@H]1CCC[C@H]1CN3CCNC2 [Compound A.HCl] : ____
Response: ~173 ng·h/mL

* * *

Test: Ascending multiple dose pharmacokinetics of enteric coated capsules in healthy subjects
Assay type: in vivo, human
Settings: human, plasma, po, 25 mg, healthy subjects, single oral dose 25 mg, day 1; read-out: Cmax (Geom. Mean)
MEASURED ATTRIBUTE: Cmax (ng/mL)
Note: unit ng/mL is implicit; provide only the numeric part.

Request: Fill blank: measured Cmax of the molecule Cl.c1cc2c3c(c1)[C@H]1CCC[C@H]1CN3CCNC2 [Compound A.HCl] is ____.
Response: 0.81

* * *

Assay: Ascending multiple dose pharmacokinetics of enteric coated capsules in healthy subjects
Type: in vivo, human
Settings: human, plasma, po, 150 mg, healthy subjects, multiple oral doses (q12 h) 150 mg, day 14; read-out: Tmax (Geom. Mean)
MEASURED ATTRIBUTE: Tmax (h)
Numbers only; they are read as h.

Request: Quick one: Tmax of Cl.c1cc2c3c(c1)[C@H]1CCC[C@H]1CN3CCNC2 [Compound A.HCl] ?
Response: 5

* * *

Test: Ascending multiple dose pharmacokinetics of enteric coated capsules in healthy subjects
Type: in vivo, human
Details: human, plasma, po, 250 mg, healthy subjects, single oral dose 250 mg, day 1; read-out: Cmax (Mean)
MEASURED ATTRIBUTE: Cmax (ng/mL)
Number only, in ng/mL; omit the unit.

Request: Value lookup for Cmax; key = Cl.c1cc2c3c(c1)[C@H]1CCC[C@H]1CN3CCNC2 [Compound A.HCl]
Response: 6.27

* * *

Experiment: Ascending multiple dose pharmacokinetics of enteric coated capsules in healthy subjects
Assay type: in vivo, human
Conditions: human, plasma, po, 75 mg, healthy subjects, single oral dose 75 mg, day 1; read-out: t1/2 (Geom. Mean) (converted)
MEASURED ATTRIBUTE: half-life (h)
Record the value in h, omitting the unit from your answer.

Request: Which half-life reading was recorded for the compound Cl.c1cc2c3c(c1)[C@H]1CCC[C@H]1CN3CCNC2 [Compound A.HCl] ?
Response: 7.93

* * *

Test: Ascending multiple dose pharmacokinetics of enteric coated capsules in healthy subjects
Type: in vivo, human
Conditions: human, plasma, po, 250 mg, healthy subjects, single oral dose 250 mg, day 1; read-out: Cmax (Geom. Mean)
MEASURED ATTRIBUTE: Cmax (ng/mL)
Just the number please, in ng/mL, no unit attached.

Request: Look up Cmax for this compound: Cl.c1cc2c3c(c1)[C@H]1CCC[C@H]1CN3CCNC2 [Compound A.HCl]
Response: 5.91

* * *

Assay: Ascending multiple dose pharmacokinetics of enteric coated capsules in schizophrenic patients
Type: in vivo, human
Settings: human, plasma, po, 100 mg, Schizophrenia patients, multiple oral doses (q12 h) 100 mg, day 10; read-out: Tmax (Geom. Mean)
MEASURED ATTRIBUTE: Tmax
I'd appreciate it if you wrote the number followed by its unit.

Request: Consider the molecule Cl.c1cc2c3c(c1)[C@H]1CCC[C@H]1CN3CCNC2 [Compound A.HCl] and give its measured Tmax.
Response: 4.6 h

* * *

Assay: Ascending multiple dose pharmacokinetics of enteric coated capsules in schizophrenic patients
Format: in vivo, human
Settings: human, plasma, po, 250 mg, Schizophrenia patients, single oral dose 250 mg, day 1; read-out: Tmax (Mean)
MEASURED ATTRIBUTE: Tmax (h)
I only need the number, in h, no unit after it.

Request: I am curious: what Tmax value has been reported for Cl.c1cc2c3c(c1)[C@H]1CCC[C@H]1CN3CCNC2 [Compound A.HCl] ?
Response: 5

* * *

Test: Ascending multiple dose pharmacokinetics of enteric coated capsules in healthy subjects
Assay type: in vivo, human
Conditions: human, plasma, po, 250 mg, healthy subjects, multiple oral doses (q12 h) 250 mg, day 14; read-out: t1/2 (Geom. Mean) (converted)
MEASURED ATTRIBUTE: half-life (h)
State just the number; it will be interpreted in h.

Request: Fill blank: measured half-life of the molecule Cl.c1cc2c3c(c1)[C@H]1CCC[C@H]1CN3CCNC2 [Compound A.HCl] is ____.
Response: 6.99

* * *

Assay: Ascending multiple dose pharmacokinetics of enteric coated capsules in healthy subjects
Type: in vivo, human
Details: human, plasma, po, 50 mg, healthy subjects, single oral dose 50 mg, day 1; read-out: Cmax (Geom. Mean)
MEASURED ATTRIBUTE: Cmax (ng/mL)
Form entry: value (ng/mL) — number only.

Request: Which Cmax value belongs to Cl.c1cc2c3c(c1)[C@H]1CCC[C@H]1CN3CCNC2 [Compound A.HCl] ?
Response: 2.29

* * *

Assay: Ascending multiple dose pharmacokinetics of enteric coated capsules in schizophrenic patients
Format: in vivo, human
Settings: human, plasma, po, 150 mg, Schizophrenia patients, single oral dose 150 mg, day 1; read-out: t1/2 (Geom. Mean) (converted)
MEASURED ATTRIBUTE: half-life (h)
Provide only the numeric value, understood in h.

Request: So what does the record say about half-life for Cl.c1cc2c3c(c1)[C@H]1CCC[C@H]1CN3CCNC2 [Compound A.HCl] ?
Response: 9.25

* * *

Experiment: Ascending multiple dose pharmacokinetics of enteric coated capsules in healthy subjects
Assay type: in vivo, human
Details: human, plasma, po, 25 mg, healthy subjects, multiple oral doses (q12 h) 25 mg, day 14; read-out: AUCss (AUC0-12) (Mean)
MEASURED ATTRIBUTE: AUC(0-t)

Request: Bench note: what AUC(0-t) did Cl.c1cc2c3c(c1)[C@H]1CCC[C@H]1CN3CCNC2 [Compound A.HCl] show?
Response: ~8.73 ng·h/mL

* * *

Assay: Ascending multiple dose pharmacokinetics of enteric coated capsules in healthy subjects
Format: in vivo, human
Details: human, plasma, po, 50 mg, healthy subjects, multiple oral doses (q12 h) 50 mg, day 14; read-out: Tmax (Geom. Mean)
MEASURED ATTRIBUTE: Tmax (h)
# output: bare number, implied unit h

Request: Which Tmax value is on record for Cl.c1cc2c3c(c1)[C@H]1CCC[C@H]1CN3CCNC2 [Compound A.HCl] ?
Response: 5.6

* * *

Assay: Ascending multiple dose pharmacokinetics of enteric coated capsules in schizophrenic patients
Format: in vivo, human
Settings: human, plasma, po, 100 mg, Schizophrenia patients, single oral dose 100 mg, day 1; read-out: Tmax (Geom. Mean)
MEASURED ATTRIBUTE: Tmax
Answer format: number, then unit.

Request: Which Tmax value is on record for Cl.c1cc2c3c(c1)[C@H]1CCC[C@H]1CN3CCNC2 [Compound A.HCl] ?
Response: 4.7 h

* * *

Test: Ascending multiple dose pharmacokinetics of enteric coated capsules in healthy subjects
Type: in vivo, human
Details: human, plasma, po, 75 mg, healthy subjects, single oral dose 75 mg, day 1; read-out: t1/2 (Mean) (converted)
MEASURED ATTRIBUTE: half-life (h)
State just the number; it will be interpreted in h.

Request: Fill in the blank: the reported half-life of Cl.c1cc2c3c(c1)[C@H]1CCC[C@H]1CN3CCNC2 [Compound A.HCl] is ____.
Response: 8.22

* * *

Assay: Ascending multiple dose pharmacokinetics of enteric coated capsules in healthy subjects
Type: in vivo, human
Details: human, plasma, po, 25 mg, healthy subjects, multiple oral doses (q12 h) 25 mg, day 14; read-out: Tmax (Mean)
MEASURED ATTRIBUTE: Tmax (h)
Express the result in h but write the number alone.

Request: Which measured Tmax value corresponds to Cl.c1cc2c3c(c1)[C@H]1CCC[C@H]1CN3CCNC2 [Compound A.HCl] ?
Response: 4
